Entry source: PubChem BioAssay (NCI)

Assay: NCI Yeast Anticancer Drug Screen. Data for the rad50 strain (AID 155)
Settings: S. cerevisiae rad50 strain growth inhibition; at 50.0 µM
About 79,000 compounds went through this panel and 15% of them were active in at least one assay; those are over-represented in the sample as a whole. Active and inactive are the calls of the source. No stated cut-off is given here; in the data, active means growth inhibition above about 70%; inactive means the rest.
Result category, one only: y (active), n (inactive)

A selection of reference data follows.
molecule	qualitative-label
COC(=O)c1cc(=O)n(-c2ccccc2OC)c(SC)n1	y
Cc1cccc(/C=N/Nc2cc(C)c3ccccc3n2)n1	y
O=NN(CCCl)C(=O)Oc1cc(Cl)c(Cl)cc1Cl	y

Q: Can you look up the reported call for O=C1NC(=O)N(c2ccc([N+](=O)[O-])cc2)C1=O for me?
A: n

Q: Can you look up the reported call for CS(=O)(=O)OCCCN(CCCOS(C)(=O)=O)c1ccc(C=Nc2ccc(-c3csc(COc4ccc(Br)cc4Br)n3)cc2)cc1 for me?
A: y

Q: Can you look up the reported call for COC(=O)c1ncc(Cl)cc1Cl for me?
A: n

Q: Can you look up the reported call for CCCCCCCCCCCCCCCCCC(=O)OCC(O)COC(=O)CCCCCCCCCCCCCCCCC for me?
A: n

Q: Can you look up the reported call for CC1CC(C)C(C)C(CO)C1 (stereo unspecified) for me?
A: n

Q: Can you look up the reported call for CC(=O)[O-].CC(=O)[O-].CC(=O)[O-].CC(=O)[O-].Cn1c(=O)c2[nH]cnc2n(C)c1=O.Cn1c(=O)c2[nH]cnc2n(C)c1=O.[Rh+2].[Rh+2] for me?
A: n

Q: Can you look up the reported call for O=C1c2c(O)ccc(O)c2C(=O)c2c(O)ccc(O)c21 for me?
A: n

Q: Can you look up the reported call for COc1ccc(C(=O)Oc2c(Br)cc(Br)cc2Br)cc1 for me?
A: n
